The binders listed here are annotated with their EC50.
Molecular target: T1, human serum albumin (human, UniProt P02768 25-609)
T1 construct: immobilized on chips or coated on plates elsewhere; also called HSA; HuSA
Assay: direct binding ELISA, albumin coated
Give your result in nM as a bare value.

Would you please look over these solved cases?
BINDER: PCSK9-PKE2 tandem 4472_H11 (designed binder, not shown: small tags and cut ends, The two parts are one polypeptide in the real molecule, joined by the undisclosed linker P (a code, not a proline); they are given here as separate chains.) PCSK9 10Fn3: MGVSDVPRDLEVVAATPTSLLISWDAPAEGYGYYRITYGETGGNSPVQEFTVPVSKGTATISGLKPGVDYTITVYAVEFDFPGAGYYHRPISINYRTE PKE2 10Fn3: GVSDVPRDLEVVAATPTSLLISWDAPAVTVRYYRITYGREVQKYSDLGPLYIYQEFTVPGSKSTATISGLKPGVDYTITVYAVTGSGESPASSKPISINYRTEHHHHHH
EC50 [nM]: 85.3
--
BINDER: PCSK9-PKE2 tandem 4472_F08 (designed binder, The real molecule is ONE polypeptide: PCSK9 domain, undisclosed linker F, PKE2 domain. It is given here as two chains because the linker letters are unknown., not shown: The inter-domain linker) PCSK9 domain: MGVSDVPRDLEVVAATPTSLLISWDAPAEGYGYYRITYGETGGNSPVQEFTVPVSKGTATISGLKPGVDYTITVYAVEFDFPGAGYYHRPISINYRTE PKE2 domain: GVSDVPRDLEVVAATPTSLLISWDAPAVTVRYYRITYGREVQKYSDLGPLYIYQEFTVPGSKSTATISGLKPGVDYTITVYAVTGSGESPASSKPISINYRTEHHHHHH
EC50 [nM]: 55.4

Next up:
Input PCSK9-PKE2 tandem 4472_A11 (designed binder, In the real molecule the two parts given here are one polypeptide, joined by the undisclosed linker B. They are written as two chains only because the linker has no letters., not shown: Linker 'B' joining ...NYRTE of the PCSK9 domain to GVSDV... of the PKE2 domain) PCSK9 domain: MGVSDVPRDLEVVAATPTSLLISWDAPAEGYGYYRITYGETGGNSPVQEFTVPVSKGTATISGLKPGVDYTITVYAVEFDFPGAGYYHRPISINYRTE PKE2 domain: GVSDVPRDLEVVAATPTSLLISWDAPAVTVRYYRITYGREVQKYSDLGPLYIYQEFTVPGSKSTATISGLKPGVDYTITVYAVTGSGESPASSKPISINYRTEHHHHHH . Output EC50: 26.9
